B1: KLHDC10 (parent)
chain: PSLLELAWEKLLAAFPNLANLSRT

Variants of: B1
Test: protein stability index of a GFP-peptide fusion (GPS, HEK-293T) (PSI 1-6); higher = more stable;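 further: lentivirally expressed fusions sorted by FACS into six bins by GFP to DsRed ratio, PSI derived from sequencing read proportions per bin multiplied by bin number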
Details: c terminus: a fixed tail appended
Below, each of the variants is paired with its reported protein stability index value.

| Mutation descriptor | protein stability index |
| --- | --- |
| E5L | 2.19 |
| L21C | 2.16 |
| A13K | 1.95 |
| E9D | 2.22 |
| P16N | 2.03 |
| W8M | 1.95 |
| L18F | 2.52 |
| N20M | 3.12 |
| E5P | 1.34 |
| N17M | 2.56 |
| L3A | 2.24 |
| L6Q | 2 |
| A13M | 2.51 |
| E9T | 2.39 |
| F15R | 2.11 |
| W8N | 2.37 |
| N17Y | 2.44 |
| E9A | 1.84 |
| E5K | 2.28 |
| L21Y | 2.4 |
| P1D | 2.06 |
| L18D | 2.1 |
